All values here come from patent US10975083B2.

Target: DβH (Homo sapiens)
Construct: reaction mixture (total volume 500 μl) contained: cellular homogenate (75 μg total protein); host or cells: SK-N-SH cell homogenate
Experiment: DβH inhibition cell assay (SK-N-SH cellular homogenates, tyramine to octopamine)
Type: biochemical
Details: inhibitor 0.1 μM; SK-N-SH cell homogenate; read-out: DβH activity in % of Ctrl (0.1 μM)
REPORTED_PROPERTY: remaining activity at 0.1 µM (%)

Cn1cc2n(c1=S)C[C@@]1(c3cc(Cl)ccc3F)C[C@@H]21 [Example 116]
24.8
NC(=S)N1CCC(c2cc(F)cc(F)c2F)C1 (stereo not shown) [Example 24]
40.2

(A) [2H]C([2H])([2H])c1[nH]c(=S)n2c1[C@@H]1C[C@]1(c1cc(Cl)ccc1F)C2 [Example 100]
(B) NC(=S)N1CC[C@@H](c2ccccc2)C1 [Example 6, (S)-3-phenylpyrrolidine-1-carbothioamide]
Prompt: Pick the one with the larger remaining activity at 0.1 µM: A vs B Your choice should be expressed through its label.
Response: B
(B: 97.6%, A: 0%)

====

Target: DβH (Homo sapiens)
Construct: reaction mixture (total volume 500 μl) contained: cellular homogenate (75 μg total protein); host or cells: SK-N-SH cell homogenate
Assay: DβH inhibition cell assay (SK-N-SH cellular homogenates, tyramine to octopamine)
Assay type: biochemical
Conditions: inhibitor 0.1 μM; SK-N-SH cell homogenate; read-out: DβH activity in % of Ctrl (0.1 μM)
REPORTED_PROPERTY: remaining activity at 0.1 µM (%)

(1) [2H]C1([2H])n2c(c[nH]c2=S)[C@@H]2C[C@@]21c1cc(Cl)ccc1F
(2) Fc1cccc(F)c1[C@]12C[C@H]1c1c[nH]c(=S)n1C2
Prompt: Pick one, 1 or 2 : lowest reported remaining activity at 0.1 µM. Your choice should be expressed through its label.
Response: 1
(1: 22%, 2: 39.9%)

====

Molecular target: DβH (Homo sapiens, UniProt P09172)
Construct: reaction mixture (total volume 500 μl) contained: cellular homogenate (75 μg total protein); host or cells: SK-N-SH cell homogenate
Sequence (P09172 whole entry): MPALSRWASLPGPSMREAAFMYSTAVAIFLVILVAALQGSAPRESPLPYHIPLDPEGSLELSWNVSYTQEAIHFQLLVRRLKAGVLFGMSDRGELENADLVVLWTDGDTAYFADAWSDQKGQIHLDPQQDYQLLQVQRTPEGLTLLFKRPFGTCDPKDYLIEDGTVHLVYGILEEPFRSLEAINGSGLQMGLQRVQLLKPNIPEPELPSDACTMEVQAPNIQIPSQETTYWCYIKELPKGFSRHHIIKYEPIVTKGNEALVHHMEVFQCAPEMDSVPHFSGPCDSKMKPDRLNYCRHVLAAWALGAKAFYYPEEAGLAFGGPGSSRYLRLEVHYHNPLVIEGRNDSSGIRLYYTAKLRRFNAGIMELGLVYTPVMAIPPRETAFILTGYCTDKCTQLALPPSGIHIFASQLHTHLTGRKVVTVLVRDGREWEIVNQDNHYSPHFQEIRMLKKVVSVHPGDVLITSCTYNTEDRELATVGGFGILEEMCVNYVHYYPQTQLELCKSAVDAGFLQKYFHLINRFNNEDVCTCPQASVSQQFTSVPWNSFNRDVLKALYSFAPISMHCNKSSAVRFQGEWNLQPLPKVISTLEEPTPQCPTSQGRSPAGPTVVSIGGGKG
Test: DβH inhibition cell assay (SK-N-SH cellular homogenates, tyramine to octopamine)
Type: biochemical
Conditions: read-out: DβH activity in % of Ctrl (1 μM)
REPORTED_PROPERTY: remaining activity at 1 µM (%)
Kindly provide the numeric value in % only, without the unit symbol.

Recorded results for 3 compounds are shown here.
Fc1cc(F)cc([C@]23C[C@H]2Cc2c[nH]c(=S)n2C3)c1
16.3
Cc1[nH]c(=S)n2c1C[C@@H](c1cc(F)cc(F)c1)C2
28.9
Fc1cc(F)cc(C23CC2c2c[nH]c(=S)n2C3)c1 (stereo not shown)
11.8

Prompt: Under DβH (Homo sapiens, UniProt P09172), report remaining activity at 1 µM for `CCCCc1[nH]c(=S)n2c1C[C@@H](c1cc(F)cc(F)c1)C2`
Response: 56.7

Prompt: Under DβH (Homo sapiens, UniProt P09172), report remaining activity at 1 µM for `Fc1cc(F)cc([C@H]2Cc3c[nH]c(=S)n3C2)c1`
Response: 59.8

Prompt: Under DβH (Homo sapiens, UniProt P09172), report remaining activity at 1 µM for S=c1[nH]cc2n1CC(c1ccccc1)C2 (stereo not shown)
Response: 60.6

Prompt: Under DβH (Homo sapiens, UniProt P09172), report remaining activity at 1 µM for Fc1ccc(C2Cc3c[nH]c(=S)n3C2)c(F)c1 (stereo not shown)
Response: 54.4
